- subject_of_test: T1, ALK-ECD-myc/his tag protein (human, UniProt Q9UM73 19-1038)
- T1 construct: Expressed in 293/293F cells and purified from conditioned medium; biotin labelled for the soluble panning; also called recombinant ALK-ECD-myc/his tag; ALK-ECD protein; not shown: Myc/His tag
- test_details: ELISA, ALK-ECD-myc/his coated at 10 μg/mL, anti-human IgG-HRP
reported_metric: binding result

fully human anti-ALK IgG A7 (antibody, V domains shown, Full length fully human IgG) VH: EVQLLESGGGLVQPGGSLRLSCAASGFTFSNYIMSWVRQAPGKGLEWVSWISSSGGFTQYADSVKGRFTISRDNSKNTLYLQMNSLRAEDTAVYYCARVIAAAGAFDYWGQGTLVTVSS VL: DIQMTQSPSSVAASVGDRVTITCRASQDISTWLAWYQQKPGKAPKLLLSGASRLERGVPSRFSGSGSGTDFTLTIRGLQSEDFATYYCQQARSFPPTFGQGTRVEMR | binds
fully human anti-ALK IgG B8 (antibody, V domains shown, Full length fully human IgG) VH: EVQLLESGGGLVQPGGSLRLSCAASGFTFSQYVMAWVRQAPGKGLEWVSSIWSSGGMTWYADSVKGRFTISRDNSKNTLYLQMNSLRAEDTAVYYCAKHGVLRYFDWSMPFDFWGQGTLVTVSS VL: DIQMTQSPPSLSASVGDRVTITCRTSQNISSYLNWYQQKPGKAPKLLIYAASSLQSGVPSRFSGSGSGTDFTLTIRSLQPEDFAAYYCQQSYTSLTFGGGTKVEIK | binds
